- Tested on: FT3469 (normal neural stem cell line)
- method summary: phenotypic distance (Euclidean, principal components) from DMSO controls (arbitrary units); higher = stronger morphological change
- experimental setup: 37 nM; exposure time: 72 h
Structures can show the parent of a compound that is named as a salt.
measurement name: phenotypic distance

Cc1[nH]nc(C(F)(F)F)c1Cc1sc2c(c1C(=O)N1C[C@](C)(O)CO1)c(=O)n(C)c(=O)n2C(C)C = 0.806
COc1cc2c[n+](C)c3c4cc5c(cc4ccc3c2cc1OC)OCO5 [Nitidine chloride] = 0.732
CNCCCC12CCC(c3ccccc31)c1ccccc12 [Maprotiline hydrochloride] = 0.677
O=C(/C=C/c1cccnc1)NCCCCC1CCN(C(=O)c2ccccc2)CC1 = 2.62
CN1[C@@H]2CC[C@H]1CC(OC(=O)c1c[nH]c3ccccc13)C2 (stereo partly specified) [3-Tropanyl-indole-3-carboxylate hydrochloride] = 2.87
Nc1nc2n[nH]nc2c(=O)[nH]1 = 0.941

---

- Tested on: E57 (patient-derived glioblastoma stem cells of mesenchymal subtype);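 note: nuclei counted by high-content imaging of Hoechst-stained cells in laminin-coated 384-well plates, relative to 0.1% DMSO vehicle wells, with staurosporine as cell-death control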
- method summary: surviving fraction (nuclei count normalised to DMSO); higher = more cells surviving (less toxic)
- experimental setup: 111.1 nM; exposure time: 72 h
Where a name gives a salt, the structure may show the parent alone.
surviving fraction for assorted compounds
measurement name: surviving fraction

CCCCCCC[N+](CC)(CC)CCCCc1ccc(Cl)cc1 [Clofilium tosylate] = 0.977
CN(C)CCN(Cc1ccc(Cl)cc1)c1ccccn1 [Chloropyramine hydrochloride] = 0.936
COc1cc(N)c(Cl)cc1C(=O)NC1CCN(CCCOc2ccc(F)cc2)CC1OC (stereo unspecified) [Cisapride] = 1.07
CC(=O)[C@]1(O)Cc2c(O)c3c(c(O)c2[C@@H](O[C@H]2C[C@H](N)[C@H](O)[C@H](C)O2)C1)C(=O)c1ccccc1C3=O [Idarubicin] = 0.166
Nc1ccn([C@@H]2O[C@H](CO)[C@@H](O)[C@@H]2O)c(=O)n1 [Cytarabine] = 0.316
Nc1nc(Cl)nc2c1ncn2[C@@H]1O[C@H](CO)[C@@H](O)[C@@H]1F [Clofarabine] = 0.402
COc1cccc2c1C(=O)c1c(O)c3c(c(O)c1C2=O)C[C@@](O)(C(C)=O)C[C@@H]3O[C@H]1C[C@H](N)[C@H](O)[C@H](C)O1 [Daunorubicin hydrochloride] = 0.178
COC(=O)C1=C(C)NC(C)=C(C(=O)OCC(C)C)C1c1ccccc1[N+](=O)[O-] (stereo unspecified) [Nisoldipine] = 0.969
CC(C)(Oc1ccc(C2CC2(Cl)Cl)cc1)C(=O)O (stereo unspecified) [Ciprofibrate] = 0.991
COc1cc2c[n+](C)c3c4cc5c(cc4ccc3c2cc1OC)OCO5 [Nitidine chloride] = 0.946
OC[C@H]1NC[C@H](O)[C@@H](O)[C@@H]1O [1-Deoxynojirimycin] = 0.955

---

- Tested on: E28 (patient-derived glioblastoma stem cells of classical subtype)
- method summary: phenotypic distance (Euclidean, principal components) from DMSO controls (arbitrary units); higher = stronger morphological change
- experimental setup: 3000 nM; exposure time: 72 h
Structures can show the parent of a compound that is named as a salt.
Mark fulfilled for reported phenotypic distance of 1 or greater; mark not fulfilled for anything smaller.

CC(C)(C)C1CCN(C(=O)n2ncc(C(O)(c3ccccc3)c3ccccc3)n2)CC1 [ML211] = fulfilled
CC(NCCC(c1ccccc1)c1ccccc1)c1ccccc1 (stereo not drawn) [Fendiline hydrochloride] = not fulfilled
CNCCCC12CCC(c3ccccc31)c1ccccc12 [Maprotiline hydrochloride] = not fulfilled
CC[C@@]1(O)C(=O)OCc2c1cc1n(c2=O)Cc2cc3cc(O)ccc3nc2-1 [Hydroxy Camptothecine] = fulfilled
Nc1ccc(-c2ccc3ncc4ccc(=O)n(-c5cccc(C(F)(F)F)c5)c4c3c2)cn1 [Torin2] = fulfilled
COc1cc([C@@H]2c3cc4c(cc3[C@@H](O[C@@H]3O[C@@H]5CO[C@@H](c6cccs6)O[C@H]5[C@H](O)[C@H]3O)[C@H]3COC(=O)[C@H]23)OCO4)cc(OC)c1O [Teniposide] = fulfilled
CCCCCCC[N+](CC)(CC)CCCCc1ccc(Cl)cc1 [Clofilium tosylate] = fulfilled
CC(C)C[C@H](NC(=O)[C@H](CCc1ccccc1)NC(=O)CN1CCOCC1)C(=O)N[C@@H](Cc1ccccc1)C(=O)N[C@@H](CC(C)C)C(=O)[C@@]1(C)CO1 [Carfilzomib] = fulfilled
